Measured values drawn from patent US20140356358A1 for this set.

target: T1, human neonatal Fc receptor (hFcRn) (human, UniProt P55899 24-290; P61769 21-119); assay: SPR competition pH 5.5
T1 construct: Biotinylated in the ELISA, Octet and yeast assays; also called human FcRn; huFcRn
T1 sequence (P55899 24-290 limits assumed, chain 1 of 2): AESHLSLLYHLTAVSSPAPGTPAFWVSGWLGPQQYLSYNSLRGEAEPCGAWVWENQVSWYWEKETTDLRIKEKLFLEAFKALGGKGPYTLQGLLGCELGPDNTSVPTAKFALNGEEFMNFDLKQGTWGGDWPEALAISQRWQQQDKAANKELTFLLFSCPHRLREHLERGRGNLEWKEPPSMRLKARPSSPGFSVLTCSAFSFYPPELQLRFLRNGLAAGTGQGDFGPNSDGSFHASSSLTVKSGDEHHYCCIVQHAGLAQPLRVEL
T1 sequence (P61769 21-119 limits assumed, chain 2 of 2): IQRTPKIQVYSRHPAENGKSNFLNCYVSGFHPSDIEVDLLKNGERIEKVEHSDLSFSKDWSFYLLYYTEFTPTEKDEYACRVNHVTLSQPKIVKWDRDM
Measured pEC50 values are reported for all entries that follow.
Remember, pEC50 is on a log scale: it is -log10 of the molar concentration.

{"columns": ["binder", "pEC50"],
 "data": [
  ["variant Fc-fragment Fc-5-96 (other, soluble elsewhere) EPKSCDKTHTCPPCPAPELLGGPSVFLFPPKPKDTLMISRTPEVTCVVVDVSHEDPEVKFNWYVDGVEVHNAKTKPREEQYNSTYRVVSVLTVLHQDWLNGKEYKCKVSNKALPAPIEKTISKAKGQPREPQVYTLPPSRDELTKNQVSLTCLVKGFYPSDIAVEWESNGGCMQMNKWCGGGQPENNYKTTPPVLDSDGSFFLYSKLTVDKSRWQQGNVFSCSVMHEALHNHYTQKSLSLSPGK", 7.12]
]}

Pending binder:
Reported pEC50 of variant Fc-fragment Fc-5-110 (other, library L5 isolate) EPKSCDKTHTCPPCPAPELLGGPSVFLFPPKPKDTLMISRTPEVTCVVVDVSHEDPEVKFNWYVDGVEVHNAKTKPREEQYNSTYRVVSVLTVLHQDWLNGKEYKCKVSNKALPAPIEKTISKAKGQPREPQVYTLPPSRDELTKNQVSLTCLVKGFYPSDIAVEWESNGGCWGSRSQCGGGQPENNYKTTPPVLDSDGSFFLYSKLTVDKSRWQQGNVFSCSVMHEALHNHYTQKSLSLSPGK : 6.60
